Assay: Quantitative High-Throughput drug screen in 47 multiple myeloma cell lines against the NCATS MIPE library collection: PCM6_Riken cell viability assay (AID 1919870); further: nearly all actives have a fitted effect of over 30% in size; further: potency means the concentration at half of the fitted maximal effect
Details: CellTiter-Glo ATP, 48 h; series mostly up to 45.8 µM
Text: PI: Beverly A. Mock Ph.D. Laboratory of Cancer Biology and Genetics, Center for Cancer Research, National Cancer Institute, National Institute of Health, Bethesda, Maryland […] 5; Detector; 425V; Luminescence; Viewlux PerkinElmer. […] 1. […] Briefly, the corresponding myeloma cell lines were screened in 1,536-well plates with 500 cells, 5-uL per well for inhibition of cell viability (assessed by measuring ATP levels with CellTiterGlo). […]
Inconclusive results are not listed. Calls of active or inactive are those of the source. The call rests on the fitted dose curve; in most records, active means well fitted cell-killing curve with a large enough effect; inconclusive means small, poorly fitted or top-dose-only effect, or effect the other way; inactive means no such curve, though single readings can be large or run the other way.
recorded metric: Potency

INSERT INTO assay_data (smiles_str, recorded_metric, observed) VALUES
  ('O[C@@H](CNC[C@H](O)[C@H]1CCc2cc(F)ccc2O1)[C@@H]1CCc2cc(F)ccc2O1', 'Potency', '16.6 µM (active)'),
  ('COc1nc(N)nc2c1ncn2[C@@H]1O[C@H](CO)[C@@H](O)[C@@H]1O', 'Potency', 'inactive'),
  ('COc1ccc(C(=O)CC(=O)c2ccc(C(C)(C)C)cc2)cc1', 'Potency', '0.935 µM (active)'),
  ('COC(c1ccccc1)(c1ccccc1)[C@H](Oc1nc(C)cc(C)n1)C(=O)O', 'Potency', 'inactive'),
  ('Nc1nc(N)nc(-c2cc(Cl)ccc2Cl)n1', 'Potency', 'inactive'),
  ('CC(C)OC(=O)C(C(=O)OC(C)C)=C1SC=CS1', 'Potency', 'inactive'),
  ('CCc1cc(C(N)=S)ccn1', 'Potency', 'inactive'),
  ('COc1ncnc(NS(=O)(=O)c2ccc(N)cc2)c1OC', 'Potency', 'inactive'),
  ('CC(C)(C)NC(=O)[C@H]1CC[C@H]2[C@@H]3CC[C@H]4NC(=O)C=C[C@]4(C)[C@H]3CC[C@]12C', 'Potency', '0.59 µM (active)'),
  ('NC(=O)N1c2ccccc2CC(=O)c2ccccc21', 'Potency', 'inactive'),
  ('CCn1cc(C(=O)O)c(=O)c2cc(F)c(N3CCNCC3)nc21', 'Potency', 'inactive');

====

biological target: ATP-dependent 6-phosphofructokinase (Trypanosoma brucei brucei); experiment: qHTS Validation Assay to Find Inhibitors of T. brucei phosphofructokinase (AID 485368); details: T. brucei PFK enzyme assay, qHTS 7-point titration; series mostly up to 57.5 µM
Inconclusive results are not listed. Calls of active or inactive are those of the source. Calls come from the whole dose curve; as a rule, active = well fitted inhibition curve with a large enough effect; inconclusive = small, poorly fitted or top-dose-only effect, or effect the other way; inactive = flat fitted curve, though single readings scatter.
Possible outcomes: active, inactive

INSERT INTO results (compound, assigned_category) VALUES
  ('CCN(CC)CCn1c(=O)c(Cc2ccc(OC)cc2)nc2ccccc21', 'inactive'),
  ('CCCCS(=N)(=O)CCC(N)C(=O)O (stereo not given)', 'inactive'),
  ('CC(=O)[C@H]1CC[C@H]2[C@@H]3CCC4=CC(=O)CC[C@]4(C)[C@H]3CC[C@]12C', 'inactive'),
  ('N[C@@H](Cc1ccc(O)c(O)c1)C(=O)O', 'active'),
  ('CCN(CC)CC#CCOC(=O)C(O)(c1ccccc1)C1CCCCC1 (stereo not given)', 'inactive');

====

Each item that follows carries a reported viability (% of control).
test: High-throughput drug toxicity screening in the BPDCN cell line Cal-1 (AID 1224825); conditions: Cal-1 BPDCN cell viability, qHTS; at 45.8 µM (top of the series) unless noted;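 further: cells exposed to compounds for 48 h; 100% = DMSO and 0% = bortezomib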
recorded metric: viability (% of control) (%)

INSERT INTO assay_data (compound, recorded_metric, unit_descriptor, observed) VALUES
  ('Nc1ccc(S(=O)(=O)Nc2ccccn2)cc1', 'viability (% of control)', '%', 112),
  ('Nc1[nH]c(=O)ncc1F', 'viability (% of control)', '%', 22.3),
  ('NC(=O)N1c2ccccc2CC(=O)c2ccccc21', 'viability (% of control)', '%', 112),
  ('Nc1nc(N)c2nc(CNc3ccc(C(=O)NC(CCC(=O)O)C(=O)O)cc3)cnc2n1 (stereo unspecified)', 'viability (% of control)', '%', 9.27),
  ('N=C(N)c1ccc(OCCCCCOc2ccc(C(=N)N)cc2)cc1', 'viability (% of control)', '%', 39.6),
  ('Nc1nc(N)nc(-c2cc(Cl)ccc2Cl)n1', 'viability (% of control)', '%', 98),
  ('NS(=O)(=O)c1cc2c(cc1Cl)NC(C(Cl)Cl)NS2(=O)=O (stereo unspecified)', 'viability (% of control)', '%', 94.1),
  ('CCOC(=O)c1ccc(OC(=O)CCCCCN=C(N)N)cc1', 'viability (% of control)', '%', 106),
  ('NC(=O)c1cccc(N)c1', 'viability (% of control)', '%', 109),
  ('CCn1cc(C(=O)O)c(=O)c2cc(F)c(N3CCNCC3)nc21', 'viability (% of control)', '%', 114),
  ('CC[C@H](C)C(=O)O[C@H]1C[C@@H](C)C=C2C=C[C@H](C)[C@H](CC[C@@H]3C[C@@H](O)CC(=O)O3)[C@H]21', 'viability (% of control)', '%', 84.4);
